tested system: mGluR2 (Homo sapiens, UniProt Q14416)
Sequence (Q14416 19-872): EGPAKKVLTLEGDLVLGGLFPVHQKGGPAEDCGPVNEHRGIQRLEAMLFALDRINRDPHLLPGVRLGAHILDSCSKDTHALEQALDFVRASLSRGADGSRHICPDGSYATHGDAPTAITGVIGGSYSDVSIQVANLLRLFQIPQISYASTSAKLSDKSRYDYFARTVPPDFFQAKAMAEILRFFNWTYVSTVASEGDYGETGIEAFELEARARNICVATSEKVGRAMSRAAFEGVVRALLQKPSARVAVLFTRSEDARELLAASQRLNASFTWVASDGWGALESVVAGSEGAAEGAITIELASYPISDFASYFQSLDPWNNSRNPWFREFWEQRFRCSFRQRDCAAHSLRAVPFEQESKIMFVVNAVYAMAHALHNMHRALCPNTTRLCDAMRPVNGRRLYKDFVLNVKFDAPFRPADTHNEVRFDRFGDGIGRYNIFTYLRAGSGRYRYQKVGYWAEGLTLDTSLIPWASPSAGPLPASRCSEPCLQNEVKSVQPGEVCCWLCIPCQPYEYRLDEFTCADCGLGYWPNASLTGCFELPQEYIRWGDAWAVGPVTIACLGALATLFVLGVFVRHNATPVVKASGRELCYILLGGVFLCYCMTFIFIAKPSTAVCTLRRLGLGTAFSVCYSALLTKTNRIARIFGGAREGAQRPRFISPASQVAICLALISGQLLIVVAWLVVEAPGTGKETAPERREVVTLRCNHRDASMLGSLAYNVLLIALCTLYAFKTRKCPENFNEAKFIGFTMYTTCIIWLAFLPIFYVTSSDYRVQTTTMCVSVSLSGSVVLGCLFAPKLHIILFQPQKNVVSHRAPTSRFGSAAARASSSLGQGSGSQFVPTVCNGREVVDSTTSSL
property: Ki (nM)
Answers are plain numbers, in nM.

Request: // query Ki value for entry C[C@@H]1[C@H](C(=O)O)[C@H]1[C@H](N)C(=O)O
Result: 2640
